Assay: Etretinate delivery to vessel wall from coated stent (similar model)
Conditions: rabbit, vessel wall
Measured property: concentration at 72 h (ng/g)
Please respond with the number in ng/g and leave the unit unwritten.

**Q:** Any idea what concentration at 72 h was measured for CCOC(=O)/C=C(C)/C=C/C=C(C)/C=C/c1c(C)cc(OC)c(C)c1C [Etretinate] ?
**A:** 185000
